Ref: ChEMBL document CHEMBL3390839

# System: Voltage-gated inwardly rectifying potassium channel KCNH2 (Homo sapiens, UniProt Q12809)
# Sequence (Q12809 whole entry): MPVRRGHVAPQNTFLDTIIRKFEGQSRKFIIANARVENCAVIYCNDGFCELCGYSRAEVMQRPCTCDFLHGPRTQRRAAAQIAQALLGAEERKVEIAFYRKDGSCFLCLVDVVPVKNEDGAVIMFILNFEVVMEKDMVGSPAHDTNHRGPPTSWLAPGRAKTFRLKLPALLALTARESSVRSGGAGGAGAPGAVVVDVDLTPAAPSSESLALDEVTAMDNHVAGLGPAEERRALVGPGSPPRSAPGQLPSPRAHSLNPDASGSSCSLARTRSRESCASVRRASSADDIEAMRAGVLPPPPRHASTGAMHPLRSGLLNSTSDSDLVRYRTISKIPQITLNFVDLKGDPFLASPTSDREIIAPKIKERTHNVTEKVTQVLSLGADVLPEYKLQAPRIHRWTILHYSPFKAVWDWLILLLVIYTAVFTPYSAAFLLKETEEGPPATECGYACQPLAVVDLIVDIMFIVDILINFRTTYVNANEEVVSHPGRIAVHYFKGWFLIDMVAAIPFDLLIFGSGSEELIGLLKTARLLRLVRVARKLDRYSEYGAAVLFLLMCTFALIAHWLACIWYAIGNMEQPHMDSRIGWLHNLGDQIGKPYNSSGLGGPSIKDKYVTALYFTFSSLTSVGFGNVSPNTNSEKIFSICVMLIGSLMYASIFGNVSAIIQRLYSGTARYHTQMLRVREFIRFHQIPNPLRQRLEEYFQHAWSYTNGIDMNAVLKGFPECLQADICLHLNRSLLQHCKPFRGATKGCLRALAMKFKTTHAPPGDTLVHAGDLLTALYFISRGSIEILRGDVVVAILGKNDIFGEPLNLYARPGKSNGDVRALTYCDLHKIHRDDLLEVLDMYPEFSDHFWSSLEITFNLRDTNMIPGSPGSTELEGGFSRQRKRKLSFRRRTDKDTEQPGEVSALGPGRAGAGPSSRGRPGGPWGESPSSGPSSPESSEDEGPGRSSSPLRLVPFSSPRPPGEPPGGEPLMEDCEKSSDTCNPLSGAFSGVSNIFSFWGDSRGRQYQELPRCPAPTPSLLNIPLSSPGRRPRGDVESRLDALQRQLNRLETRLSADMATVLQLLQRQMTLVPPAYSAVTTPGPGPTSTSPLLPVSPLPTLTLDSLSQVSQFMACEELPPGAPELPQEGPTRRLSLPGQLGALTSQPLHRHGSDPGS
# Protocol description: Inhibition of human ERG
Note to self: use 1 (yes) only for IC50 readings below 30 µM; a reading exactly at 30 µM still gets 0 (no).

Recorded results for 6 molecules are shown here.
INSERT INTO results (molecule, assigned_label) VALUES
  ('COc1cc(Nc2nc3n(n2)C(C)CCN3CC(C)(C)O)ccc1-n1cnc(C)c1 (centres undefined)', '0 (no)'),
  ('COc1cc(Nc2nc3n(n2)C(c2ccccc2)CCN3CC(C)(C)O)ccc1-n1cnc(C)c1 (centres undefined)', '1 (yes)'),
  ('COc1cc(Nc2nc3n(n2)CCC(=O)N3Cc2ccccc2C)ccc1-c1ccc(C)nn1', '0 (no)'),
  ('COc1cc(Nc2nc3n(n2)CCC(=O)N3Cc2ccccc2Cl)ccc1-n1cnc(C)n1', '0 (no)'),
  ('COc1cc(Nc2nc3n(n2)C(C)CC(=O)N3Cc2ccccc2)ccc1-n1cnc(C)c1 (stereo in doubt; 19B)', '1 (yes)'),
  ('COc1cc(Nc2nc3n(n2)CC(C)C(=O)N3Cc2ccccc2)ccc1-n1cnc(C)c1 (centres undefined)', '1 (yes)');

Prompt line: Just wondering, is IC50 of COc1cc(Nc2nc3n(n2)CCC(=O)N3Cc2ccccc2C)ccc1-c1noc(C)n1 below 30 µM?
Response line: 0 (no)

Prompt line: Just wondering, is IC50 of COc1cc(Nc2nc3n(n2)CCC(=O)N3Cc2ccccc2C)ccc1-c1cnc(C)nc1 below 30 µM?
Response line: 1 (yes)

Prompt line: Just wondering, is IC50 of COc1cc(Nc2nc3n(n2)C(C)(C)CC(=O)N3Cc2ccc(F)cc2)ccc1-n1cnc(C)c1 below 30 µM?
Response line: 1 (yes)

----------
# Protocol description: Volume of distribution at steady state in C57BL/6 mouse at 3 umol/kg, iv
# Type: ADME, organism-based
# Conditions used: in vivo, read-out: Vdss
Readout name: Vd (L/kg)
Numbers only, in L/kg.

INSERT INTO assay_data (compound, number) VALUES
  ('COc1cc(Nc2nc3n(n2)C(C2CC2)CCN3CC(C)(C)O)ccc1-n1cnc(C)c1 (stereo in doubt; 42A)', 1.4);

Now take the following compound into account.
Looking up COc1cc(Nc2nc3n(n2)C(C)CC(=O)N3Cc2ccccc2)ccc1-n1cnc(C)c1 (stereo in doubt; 19B) , I found its Vd recorded as 0.9

----------
Please respond with reported Tmax for every item in the list.
# Protocol description: Tmax in C57BL/6 mouse at 10 umol/kg, po
# Type: ADME, organism-based
# Conditions used: in vivo
Give bare numbers, in min.

INSERT INTO assay_data (compound, readout_name, uom, number) VALUES
  ('COc1cc(Nc2nc3n(n2)C(C)CC(=O)N3Cc2ccccc2)ccc1-n1cnc(C)c1 (stereo in doubt; 19B)', 'Tmax', 'min', 30);

Looking up COc1cc(Nc2nc3n(n2)C(C2CC2)CCN3CC(C)(C)O)ccc1-n1cnc(C)c1 (stereo in doubt; 42A) , I found its Tmax recorded as 30

----------
# Protocol description: Ratio of drug level in brain to plasma in C57BL/6 mouse
# Type: ADME, organism-based
# Conditions used: brain and plasma, read-out: BPR
Readout name: Kp
Give bare numbers.

INSERT INTO assay_data (molecule, number) VALUES
  ('COc1cc(Nc2nc3n(n2)C(c2ccccc2)CCN3CC(C)(C)O)ccc1-n1cnc(C)c1 (configuration not stated)', 0.01),
  ('COc1cc(Nc2nc3n(n2)CCC(=O)N3Cc2ccccc2)ccc1-n1cnc(C)c1', 0.24),
  ('COc1cc(Nc2nc3n(n2)CCC(O)N3Cc2ccccc2)ccc1-n1cnc(C)c1 (configuration not stated)', 0.01);

Parameters: items (list). Returns: Kp for each item.
1. COc1cc(Nc2nc3n(n2)CCC(=O)N3Cc2ccccc2C(F)(F)F)ccc1-n1cnc(C)n1
2. COc1cc(Nc2nc3n(n2)CCC(=O)N3Cc2ccccc2C)ccc1-c1noc(C)n1
3. COc1cc(Nc2nc3n(n2)CCC(=O)N3Cc2ccccc2C)ccc1-c1ccnnc1
4. COc1cc(Nc2nc3n(n2)C(C)(C)CC(=O)N3Cc2ccc(F)cc2)ccc1-n1cnc(C)c1
5. COc1cc(Nc2nc3n(n2)CCC(=O)N3Cc2ccccc2C)ccc1-c1cnnc(C)c1
6. COc1cc(Nc2nc3n(n2)C(C)CC(=O)N3Cc2ccccc2)ccc1-n1cnc(C)c1 (stereo in doubt; 19B)
7. COc1cc(Nc2nc3n(n2)CCCC3c2ccccc2)ccc1-n1cnc(C)c1 (configuration not stated)
8. COc1cc(Nc2nc3n(n2)C(C2CC2)CC(=O)N3Cc2cc(F)ccc2F)ccc1-n1cnc(C)c1 (configuration not stated)

Response line:
1. 0.68
2. 0.81
3. 0.11
4. 0.23
5. 0.07
6. 0.72
7. 0.12
8. 0.11

Looking up COc1cc(Nc2nc3n(n2)C(C)CC(=O)N3CC2CC(F)(F)C2)ccc1-n1cnc(C)c1 (configuration not stated) , I found its Kp recorded as 0.08

----------
# System: Voltage-gated inwardly rectifying potassium channel KCNH2 (Homo sapiens, UniProt Q12809)
# Protocol description: Inhibition of human ERG
Please respond with reported IC50 for every item in the list.
Give bare numbers, in µM.

Example cases with answers are listed next.
INSERT INTO measurements (molecule, system, number) VALUES
  ('COc1cc(Nc2nc3n(n2)C(C2CC2)CC(=O)N3Cc2cc(F)ccc2F)ccc1-n1cnc(C)c1 (stereo not drawn)', 'Voltage-gated inwardly rectifying potassium channel KCNH2 (Homo sapiens, UniProt Q12809)', 33),
  ('COc1cc(Nc2nc3n(n2)C(C)CCN3CCC(C)(C)O)ccc1-n1cnc(C)c1 (stereo not drawn)', 'Voltage-gated inwardly rectifying potassium channel KCNH2 (Homo sapiens, UniProt Q12809)', 32);

Now take the following molecule into account.
Voltage-gated inwardly rectifying potassium channel KCNH2 (Homo sapiens, UniProt Q12809) data for COc1cc(Nc2nc3n(n2)C(C)CC(=O)N3CC2CC(F)(F)C2)ccc1-n1cnc(C)c1 (stereo not drawn) ; its IC50: 4.4

----------
# Test system: Liver microsome
# Protocol description: Intrinsic clearance in human liver microsomes measured pre ug of protein
# Format: ADME
Please respond with reported CLH for every item in the list.
Give bare numbers, in µL/min.

Example cases with answers are listed next.
INSERT INTO measurements (compound, system, readout_name, number) VALUES
  ('COc1cc(Nc2nc3n(n2)C(C)CC(=O)N3CC2CC(F)(F)C2)ccc1-n1cnc(C)c1 (stereo not drawn)', 'Liver microsome', 'CLH', 101),
  ('COc1cc(Nc2nc3n(n2)C(C)CCN3CC(C)(C)O)ccc1-n1cnc(C)c1 (stereo not drawn)', 'Liver microsome', 'CLH', 33),
  ('COc1cc(Nc2nc3n(n2)C2(CC2)CC(=O)N3Cc2ccc(F)cc2)ccc1-n1cnc(C)c1', 'Liver microsome', 'CLH', 29),
  ('COc1cc(Nc2nc3n(n2)C(C2CC2)CCN3CCC(C)(C)O)ccc1-n1cnc(C)c1 (stereo not drawn)', 'Liver microsome', 'CLH', 26),
  ('COc1cc(Nc2nc3n(n2)CCC(=O)N3Cc2ccccc2Cl)ccc1-n1cnc(C)n1', 'Liver microsome', 'CLH', 22),
  ('COc1cc(Nc2nc3n(n2)C(c2ccccc2)CCN3CC(C)(C)O)ccc1-n1cnc(C)c1 (stereo not drawn)', 'Liver microsome', 'CLH', 39),
  ('COc1cc(Nc2nc3n(n2)C(C)CC(=O)N3Cc2ccccc2)ccc1-n1cnc(C)c1 (stereo in doubt; 19B)', 'Liver microsome', 'CLH', 52),
  ('COc1cc(Nc2nc3n(n2)CCC(=O)N3Cc2ccccc2C(F)(F)F)ccc1-n1cnc(C)n1', 'Liver microsome', 'CLH', 19),
  ('COc1cc(Nc2nc3n(n2)CCCN3Cc2ccccc2)ccc1-n1cnc(C)c1', 'Liver microsome', 'CLH', 82),
  ('COc1cc(Nc2nc3n(n2)CCC(=O)N3Cc2ccccc2C)ccc1-c1cc(C)cnn1', 'Liver microsome', 'CLH', 27);

Parameters: items (list). Returns: CLH for each item.
1. COc1cc(Nc2nc3n(n2)CCC(=O)N3Cc2ccccc2)ccc1-n1cnc(C)n1
2. COc1cc(Nc2nc3n(n2)C(C)CCN3CCC(C)(C)O)ccc1-n1cnc(C)c1 (stereo not drawn)
3. COc1cc(Nc2nc3n(n2)CCC(=O)N3Cc2ccccc2C)ccc1-c1noc(C)n1
4. COc1cc(Nc2nc3n(n2)C(C)CC(=O)N3Cc2ccccc2)ccc1-n1cnc(C)c1 (stereo in doubt; 19A)
5. COc1cc(Nc2nc3n(n2)C(C2CC2)CCN3CC(C)(C)O)ccc1-n1cnc(C)c1 (stereo in doubt; 42B)
6. COc1cc(Nc2nc3n(n2)CCC(=O)N3Cc2ccccc2)ccc1-n1cnc(C)c1

Response line:
1: 16; 2: 47; 3: 39; 4: 73; 5: 21; 6: 30

Parameters: items (list). Returns: CLH for each item.
1. COc1cc(Nc2nc3n(n2)CCC(=O)N3Cc2ccccc2C)ccc1-c1cnc(C)nc1
2. COc1cc(Nc2nc3n(n2)CC(C)C(=O)N3Cc2ccccc2)ccc1-n1cnc(C)c1 (stereo not drawn)

Response line:
1: 94; 2: 84
